Assay details: Rat pharmacokinetics (oral bioavailability, clearance)
Type: in vivo
Experimental parameters: compared to prior art compound 42
Observation type: reduction in clearance (%)

• CN1CCN(c2ccc(C(=O)N[C@H](C(=O)N3CC[C@H]4OCC(=O)[C@H]43)C3CCCC3)cc2)CC1 = 29
• CN1CCN(c2ccc(C(=O)N[C@H](C(=O)N3CC(F)[C@H]4OCC(=O)[C@H]43)C3CCCCC3)cc2)CC1 (stereo in doubt) = 68
• CN1CCN(c2ccc(C(=O)N[C@H](C(=O)N3C[C@H](F)[C@H]4OCC(=O)[C@H]43)C3CCCC3)cc2)CC1 = 71

---

Assay details: Liver microsomal incubations (HLM)
Assay type: in vitro ADME
Experimental parameters: human liver microsomes 0.5 mg/mL, 25 μM, NADPH, percent remaining at 1 hour
Observation type: HLM % rem. @ 1 hr

• CN1CCN(c2ccc(C(=O)N[C@H](C(=O)N3C[C@H](F)[C@H]4OCC(=O)[C@H]43)C3CCCC3)cc2)CC1 = 100%
• CN1CCN(c2ccc(C(=O)N[C@H](C(=O)N3CC[C@H]4OCC(=O)[C@H]43)C3CCCC3)cc2)CC1 = 91.2%
• CN1CCN(c2ccc(C(=O)N[C@H](C(=O)N3CC(F)[C@H]4OCC(=O)[C@H]43)C3CCCCC3)cc2)CC1 (stereo in doubt) = 98.2%
• CN1CCN(c2nc(-c3ccc(C(=O)N[C@H](C(=O)N4C[C@@H](F)[C@H]5OCC(=O)[C@H]54)C4CCCC4)cc3)cs2)CC1 = 74%
• CC(C)C[C@H](NC(=O)c1ccc(-c2csc(N3CCN(C)CC3)n2)cc1)C(=O)N1C[C@@H](F)[C@H]2OCC(=O)[C@H]21 = 66.7%
• CC(C)C[C@H](NC(=O)c1ccc(-c2csc(N3CCN(C)CC3)n2)cc1)C(=O)N1CC[C@H]2OCC(=O)[C@H]21 = 82.6%
